Assay: Tmax in beagle dog at 2 mg/kg, po by LC-MS/MS method
Format: ADME, organism-based, Canis lupus familiaris
Settings: in vivo
ASSAY READOUT: Tmax (h)

[[record]]
entry_smiles = "COC(=O)N[C@H](C(=O)N1CC(F)(F)C[C@H]1c1ncc(-c2ccc(-c3ccc4c(ccc5nc([C@@H]6C[Si](C)(C)CN6C(=O)[C@@H](NC(=O)OC)C(C)C)[nH]c54)c3)cc2)[nH]1)C(C)C.Cl.Cl"
reported_measurement = 2.7


* * *

Experiment: Protein binding in dog plasma
Format: ADME, cell-free, Canis lupus familiaris
Conditions: read-out: PPB
ASSAY READOUT: fraction unbound

[[record]]
entry_smiles = "COC(=O)N[C@H](C(=O)N1CC(F)(F)C[C@H]1c1ncc(-c2ccc(-c3ccc4c(ccc5nc([C@@H]6C[Si](C)(C)CN6C(=O)[C@@H](NC(=O)OC)C(C)C)[nH]c54)c3)cc2)[nH]1)C(C)C"
assay_readout = "fraction unbound"
reported_measurement = "< 0.001"


* * *

Test system: Canis familiaris
Test: Clearance in beagle dog at 1 mg/kg, iv by LC-MS/MS method relative to liver blood flow
Type: ADME, organism-based, Canis lupus familiaris
Conditions: in vivo
ASSAY READOUT: clearance

[[record]]
entry_smiles = "COC(=O)N[C@H](C(=O)N1CC(F)(F)C[C@H]1c1ncc(-c2ccc(-c3ccc4c(ccc5nc([C@@H]6C[Si](C)(C)CN6C(=O)[C@@H](NC(=O)OC)C(C)C)[nH]c54)c3)cc2)[nH]1)C(C)C"
tested_system = "Canis familiaris"
reported_measurement = "3 to 7%"


* * *

Assay: Permeability in MDCK2 cells
Type: ADME, cell-based, Canis lupus familiaris, MDCK-II
Settings: dog, MDCK; read-out: permeability
ASSAY READOUT: Papp (×10⁻⁶ cm/s)

[[record]]
entry_smiles = "COC(=O)N[C@H](C(=O)N1CC(F)(F)C[C@H]1c1ncc(-c2ccc(-c3ccc4c(ccc5nc([C@@H]6C[Si](C)(C)CN6C(=O)[C@@H](NC(=O)OC)C(C)C)[nH]c54)c3)cc2)[nH]1)C(C)C"
reported_measurement = 0.8


* * *

Assay: Protein binding in rat plasma
Type: ADME, cell-free
Details: read-out: PPB
ASSAY READOUT: fraction unbound

[[record]]
entry_smiles = "COC(=O)N[C@H](C(=O)N1CC(F)(F)C[C@H]1c1ncc(-c2ccc(-c3ccc4c(ccc5nc([C@@H]6C[Si](C)(C)CN6C(=O)[C@@H](NC(=O)OC)C(C)C)[nH]c54)c3)cc2)[nH]1)C(C)C"
reported_measurement = "< 0.001"


* * *

Experiment: Tmax in cynomolgus monkey at 2 mg/kg, po by LC-MS/MS method
Assay type: ADME, organism-based, Macaca fascicularis
Details: in vivo
ASSAY READOUT: Tmax (h)

[[record]]
entry_smiles = "COC(=O)N[C@H](C(=O)N1CC(F)(F)C[C@H]1c1ncc(-c2ccc(-c3ccc4c(ccc5nc([C@@H]6C[Si](C)(C)CN6C(=O)[C@@H](NC(=O)OC)C(C)C)[nH]c54)c3)cc2)[nH]1)C(C)C.Cl.Cl"
assay_readout = "Tmax"
reported_measurement = 4.7


* * *

Test: Oral bioavailability in beagle dog at 2 mg/kg by LC-MS/MS method
Type: ADME, organism-based, Canis lupus familiaris
Conditions: in vivo
Listed here are molecules together with their documented bioavailability.
ASSAY READOUT: bioavailability (%)

[[record]]
entry_smiles = "COC(=O)N[C@H](C(=O)N1CC(F)(F)C[C@H]1c1ncc(-c2ccc(-c3ccc4c(ccc5nc([C@@H]6C[Si](C)(C)CN6C(=O)[C@@H](NC(=O)OC)C(C)C)[nH]c54)c3)cc2)[nH]1)C(C)C.Cl.Cl"
reported_measurement = 8.7

[[record]]
entry_smiles = "COC(=O)N[C@H](C(=O)N1C[Si](C)(C)C[C@H]1c1ncc(-c2ccc(-c3ccc4c(ccc5nc([C@@H]6CC(F)(F)CN6C(=O)[C@@H](NC(=O)OC)C(C)C)[nH]c54)c3)cc2)[nH]1)C(C)C"
reported_measurement = 47


* * *

Assay: Effective half life in beagle dog at 1 mg/kg, iv by LC-MS/MS method
Type: ADME, organism-based, Canis lupus familiaris
Details: in vivo, read-out: t1/2eff (converted)
ASSAY READOUT: half-life

[[record]]
entry_smiles = "COC(=O)N[C@H](C(=O)N1CCC[C@H]1c1ncc(-c2ccc(-c3cc4cc(-c5cnc([C@@H]6CCCN6C(=O)[C@@H](NC(=O)OC)C(C)C)[nH]5)ccc4o3)cc2)[nH]1)C(C)C"
reported_measurement = "4.7 h"

[[record]]
entry_smiles = "COC(=O)N[C@H](C(=O)N1C[Si](C)(C)C[C@H]1c1ncc(-c2ccc(-c3ccc4c(ccc5nc([C@@H]6CC(F)(F)CN6C(=O)[C@@H](NC(=O)OC)C(C)C)[nH]c54)c3)cc2)[nH]1)C(C)C"
reported_measurement = "30 h"

[[record]]
entry_smiles = "COC(=O)N[C@H](C(=O)N1CC(F)(F)C[C@H]1c1ncc(-c2ccc(-c3ccc4c(ccc5nc([C@@H]6C[Si](C)(C)CN6C(=O)[C@@H](NC(=O)OC)C(C)C)[nH]c54)c3)cc2)[nH]1)C(C)C.Cl.Cl"
reported_measurement = "18 h"


* * *

Assay: Dissociation constant, pKa of the compound
Format: physicochemical
ASSAY READOUT: pKa

[[record]]
entry_smiles = "COC(=O)N[C@H](C(=O)N1CC(F)(F)C[C@H]1c1ncc(-c2ccc(-c3ccc4c(ccc5nc([C@@H]6C[Si](C)(C)CN6C(=O)[C@@H](NC(=O)OC)C(C)C)[nH]c54)c3)cc2)[nH]1)C(C)C"
assay_readout = "pKa"
reported_measurement = "3.57 to 5.69"


* * *

Assay: AUC in cynomolgus monkey at 2 mg/kg, po by LC-MS/MS method
Format: ADME, organism-based, Macaca fascicularis
Settings: in vivo
ASSAY READOUT: AUC (µM·h)

[[record]]
entry_smiles = "COC(=O)N[C@H](C(=O)N1CC(F)(F)C[C@H]1c1ncc(-c2ccc(-c3ccc4c(ccc5nc([C@@H]6C[Si](C)(C)CN6C(=O)[C@@H](NC(=O)OC)C(C)C)[nH]c54)c3)cc2)[nH]1)C(C)C.Cl.Cl"
unit_text = "µM·h"
reported_measurement = 4


* * *

Experiment: Volume of distribution at steady state in cynomolgus monkey at 1 mg/kg, iv by LC-MS/MS method
Type: ADME, organism-based, Macaca fascicularis
Settings: in vivo, read-out: Vdss
ASSAY READOUT: Vd

[[record]]
entry_smiles = "COC(=O)N[C@H](C(=O)N1CC(F)(F)C[C@H]1c1ncc(-c2ccc(-c3ccc4c(ccc5nc([C@@H]6C[Si](C)(C)CN6C(=O)[C@@H](NC(=O)OC)C(C)C)[nH]c54)c3)cc2)[nH]1)C(C)C.Cl.Cl"
reported_measurement = "1.7 L/kg"


* * *

Test: Effective half life in cynomolgus monkey at 1 mg/kg, iv by LC-MS/MS method
Format: ADME, organism-based, Macaca fascicularis
Settings: in vivo, read-out: t1/2eff (converted)
ASSAY READOUT: half-life (h)

[[record]]
entry_smiles = "COC(=O)N[C@H](C(=O)N1C[Si](C)(C)C[C@H]1c1ncc(-c2ccc(-c3ccc4c(ccc5nc([C@@H]6CC(F)(F)CN6C(=O)[C@@H](NC(=O)OC)C(C)C)[nH]c54)c3)cc2)[nH]1)C(C)C"
assay_readout = "half-life"
unit_text = "h"
reported_measurement = 15

[[record]]
entry_smiles = "COC(=O)N[C@H](C(=O)N1CCC[C@H]1c1ncc(-c2ccc(-c3cc4cc(-c5cnc([C@@H]6CCCN6C(=O)[C@@H](NC(=O)OC)C(C)C)[nH]5)ccc4o3)cc2)[nH]1)C(C)C"
assay_readout = "half-life"
unit_text = "h"
reported_measurement = 3

[[record]]
entry_smiles = "COC(=O)N[C@H](C(=O)N1CC(F)(F)C[C@H]1c1ncc(-c2ccc(-c3ccc4c(ccc5nc([C@@H]6C[Si](C)(C)CN6C(=O)[C@@H](NC(=O)OC)C(C)C)[nH]c54)c3)cc2)[nH]1)C(C)C.Cl.Cl"
assay_readout = "half-life"
unit_text = "h"
reported_measurement = 17


* * *

Assay: Drug level in Sprague-Dawley rat at 2 mg/kg, po after 24 hrs by LC-MS/MS method
Format: ADME, organism-based
Settings: in vivo, read-out: Drug uptake
ASSAY READOUT: concentration at 24 h (nM)

[[record]]
entry_smiles = "COC(=O)N[C@H](C(=O)N1CCC[C@H]1c1ncc(-c2ccc(-c3cc4cc(-c5cnc([C@@H]6CCCN6C(=O)[C@@H](NC(=O)OC)C(C)C)[nH]5)ccc4o3)cc2)[nH]1)C(C)C"
reported_measurement = 4


* * *

Known CC50 of a selection of compounds
Test: Cytotoxicity in human HuH7 replicon cells by MTS assay
Type: cell-based, Huh-7
ASSAY READOUT: CC50 (µM)

[[record]]
entry_smiles = "COC(=O)N[C@H](C(=O)N1CCC[C@H]1c1ncc(-c2ccc(-c3cc4cc(-c5cnc([C@@H]6CCCN6C(=O)[C@@H](NC(=O)OC)C(C)C)[nH]5)ccc4o3)cc2)[nH]1)C(C)C"
reading_qualifier = "="
reported_measurement = 7

[[record]]
entry_smiles = "COC(=O)N[C@H](C(=O)N1CC(F)(F)C[C@H]1c1ncc(-c2ccc(-c3ccc4c(ccc5nc([C@@H]6C[Si](C)(C)CN6C(=O)[C@@H](NC(=O)OC)C(C)C)[nH]c54)c3)cc2)[nH]1)C(C)C"
reading_qualifier = ">"
reported_measurement = 25

